Where these numbers come from: paper PMC13492380

System: taxane site of assembled cross-linked MTs
Assay: Displacement of FTX2 from the taxane site (fluorescence polarization)
Assay type: binding, calf
Conditions: 35 °C
Each entry below carries its reported incremental binding free energy (ΔΔG), PTX-to-derivative modification.
// units = kJ mol^–1; emit number, no label

Example entries begin here.
>>> assay_value("CC(=O)OC1C(=O)C2(C)C(OC(=O)C(C)NC(=O)CCCCCNC(=O)c3ccc(-c4c5ccc(=O)cc-5oc5cc(O)ccc45)c(C(=O)O)c3)CC3OCC3(OC(C)=O)C2C(OC(=O)c2ccccc2)C2(O)CC(OC(=O)C(O)C(NC(=O)c3ccccc3)c3ccccc3)C(C)=C1C2(C)C (stereo not shown) [HFX, Hexaflutax, reference compound]")
6.9
>>> assay_value("COc1ccc2c(c1)CC(NC(=O)CCCCCCCC(=O)OC1CC3OCC3(OC(C)=O)C3C(OC(=O)c4ccccc4)C4(O)CC(OC(=O)C(O)C(NC(=O)c5ccccc5)c5ccccc5)C(C)=C(C(OC(C)=O)C(=O)C13C)C4(C)C)CC2 (stereo not shown)")
12.8
>>> assay_value("CC(=O)OC1C(=O)C2(C)C(OC(=O)CCCCC(=O)OC3CCc4ccccc43)CC3OCC3(OC(C)=O)C2C(OC(=O)c2ccccc2)C2(O)CC(OC(=O)C(O)C(NC(=O)c3ccccc3)c3ccccc3)C(C)=C1C2(C)C (stereo not shown)")
9.8

query: Tell me incremental binding free energy (ΔΔG), PTX-to-derivative modification of `CC(=O)O[C@H]1C(=O)[C@]2(C)[C@@H](OC(=O)[C@H](C)NC(=O)c3ccc(-c4c5cc(F)c(=O)cc-5oc5cc(O)c(F)cc45)c(C(=O)O)c3)C[C@H]3OC[C@@]3(OC(C)=O)[C@H]2[C@H](OC(=O)c2ccccc2)[C@]2(O)C[C@H](OC(=O)[C@H](O)[C@@H](NC(=O)c3ccccc3)c3ccccc3)C(C)=C1C2(C)C` when tested on taxane site of assembled cross-linked MTs.
result: −0.3
